Please go through the items and note down their melting point.

Exercise: Give recorded melting point. COc1ccc2nc(-c3ccc(F)c(C)c3)c(-c3ccnc(NC(=O)NC(C)C)c3)n2n1 [Example 53]
Solution: 233 to 234 °C

Exercise: Give recorded melting point. Cc1cccc(-c2nc3ccc(Cl)nn3c2-c2ccnc(Nc3ccccc3C)c2)c1 [Example Compound 3-2]
Solution: 191 to 192 °C

Exercise: Give recorded melting point. Cc1cc(-c2nc3cccnn3c2-c2ccnc(NC(=O)NC3CC3)c2)ccc1F [Example 51-1]
Solution: 222 to 223 °C

Exercise: Give recorded melting point. CCC(C)NC(=O)Nc1cc(-c2c(-c3ccc(F)c(C)c3)nc3cccnn23)ccn1 (stereo not shown) [Example 47-3]
Solution: 196 to 197 °C

Exercise: Give recorded melting point. Cc1cc(-c2nc3c(C)cc(Cl)nn3c2-c2ccnc(NC(=O)c3ccc(F)cc3)c2)ccc1F [Example 41-2]
Solution: 235 to 236 °C

Exercise: Give recorded melting point. Cc1cccc(-c2nc3cccnn3c2-c2ccnc(NC(=O)c3ccc(Cl)cc3)c2)c1 [Example Compound 20-3]
Solution: 211 to 212 °C

Exercise: Give recorded melting point. Cc1ccc(C(=O)Nc2nccc(-c3c(-c4cccc(C)c4)nc4cccnn34)n2)cc1 [Example 44-1]
Solution: 211 to 212 °C

Exercise: Give recorded melting point. COc1ccc(C(=O)Nc2cc(-c3c(-c4cccc(C)c4)nc4cccnn34)ccn2)cc1 [Example compound 20-2]
Solution: 177 to 178 °C

Exercise: Give recorded melting point. CCNC(=O)Nc1cc(-c2c(-c3ccc(Cl)cc3)nc3cccnn23)ccn1 [Example Compound 28-8]
Solution: 223 to 224 °C

Exercise: Give recorded melting point. Cc1cccc(-c2nc3cccnn3c2-c2ccnc(NC3CCCCC3)c2)c1 [Example Compound 6-1]
Solution: 169 to 170 °C

Exercise: Give recorded melting point. Cc1cccc(-c2nc3cccnn3c2-c2ccnc(N)n2)c1 [Example Compound 37-1]
Solution: 250 to 251 °C

Exercise: Give recorded melting point. Cc1cc(-c2nc3cccnn3c2-c2ccnc(NC(=O)NC(C)(C)C)c2)ccc1F [Example 47-2]
Solution: 234 to 235 °C

Exercise: Give recorded melting point. COc1ccc(C(=O)Nc2cc(-c3c(-c4cccc(Cl)c4)nc4cccnn34)ccn2)cc1 [Example Compound 21-3]
Solution: 223 to 224 °C

Exercise: Give recorded melting point. CCC(CC)Nc1cc(-c2c(-c3cccc(C)c3)nc3cccnn23)ccn1 [Example compound 6-20]
Solution: 155 to 156 °C

Exercise: Give recorded melting point. COc1ccc(C(=O)Nc2nccc(-c3c(-c4cccc(C)c4)nc4cccnn34)n2)cc1 [Example 44-2]
Solution: 193 to 194 °C

Exercise: Give recorded melting point. CCNC(=O)Nc1cc(-c2c(-c3ccc(F)c(C)c3)nc3ccc(NC)nn23)ccn1 [Example 48-5]
Solution: 263 to 264 °C

###

Please go through the items and note down their melting point.

Exercise: Give recorded melting point. "Cc1cccc(-c2nc3cccnn3c2-c2ccnc(Nc3cccc(C)c3C)c2)c1"
Solution: 187 to 188 °C

Exercise: Give recorded melting point. "CSc1ccc(C(=O)Nc2cc(-c3c(-c4ccc(F)c(C)c4)nc4cccnn34)ccn2)cc1"
Solution: 191 to 192 °C

Exercise: Give recorded melting point. "COc1cc(C(=O)Nc2cc(-c3c(-c4ccc(F)c(C)c4)nc4cccnn34)ccn2)ccc1F"
Solution: 217 to 218 °C

Exercise: Give recorded melting point. "O=C(Nc1cc(-c2c(-c3ccc(F)cc3)nc3cccnn23)ccn1)c1ccc(Cl)nc1"
Solution: 247 to 248 °C

###

Please go through the items and note down their melting point.

Exercise: Give recorded melting point. "Cc1cccc(-c2nc3cccnn3c2-c2ccnc(NC3CCCC3)c2)c1"
Solution: 130 to 131 °C

Exercise: Give recorded melting point. "Cc1cccc(-c2nc3cccnn3c2-c2ccnc(NC(=O)N3CCCCC3)c2)c1"
Solution: 173 to 175 °C

Exercise: Give recorded melting point. "CCCCNc1cc(-c2c(-c3cccc(C)c3)nc3cccnn23)ccn1"
Solution: 128 to 129 °C

Exercise: Give recorded melting point. "Cc1cccc(-c2nc3cccnn3c2-c2ccnc(NCC3CCCCC3)c2)c1"
Solution: 128 to 130 °C

Exercise: Give recorded melting point. "Cc1cc(-c2nc3cccnn3c2-c2ccnc(NC(=O)CS(C)(=O)=O)c2)ccc1F"
Solution: 240 to 241 °C

Exercise: Give recorded melting point. "COc1ccnn2c(-c3ccnc(N)c3)c(-c3ccc(F)c(C)c3)nc12"
Solution: 219 to 220 °C

Exercise: Give recorded melting point. "COc1ccc(C(=O)Nc2cc(-c3c(-c4ccc(F)c(C)c4)nc4cccnn34)ccn2)cc1F"
Solution: 202 to 203 °C

Exercise: Give recorded melting point. "Cc1cccc(-c2nc3cccnn3c2-c2ccnc(NC(=O)c3cccc(F)c3)c2)c1"
Solution: 204 to 205 °C

Exercise: Give recorded melting point. Cc1cccc(-c2nc3cccnn3c2-c2ccnc(NC(=O)C(C)O)c2)c1 (stereo not shown)
Solution: 223 to 224 °C

Exercise: Give recorded melting point. "Cc1cccc(-c2nc3cccnn3c2-c2ccnc(N[C@H](C)c3ccccc3)c2)c1"
Solution: 154 to 155 °C

Exercise: Give recorded melting point. "Cc1cccc(-c2nc3cccnn3c2-c2ccnc(N[C@@H](C)c3ccccc3)c2)c1"
Solution: 154 to 155 °C

Exercise: Give recorded melting point. "CCCC(=O)Nc1cc(-c2c(-c3ccc(F)c(C)c3)nc3cccnn23)ccn1"
Solution: 181 to 183 °C

Exercise: Give recorded melting point. "Cc1cc(-c2nc3cccnn3c2-c2ccnc(NC(=O)c3cccc4ccccc34)c2)ccc1F"
Solution: 252 to 253 °C

Exercise: Give recorded melting point. "Cc1cc(-c2nc3cccnn3c2-c2ccnc(NC(=O)c3ccsc3)c2)ccc1F"
Solution: 217 to 218 °C

Exercise: Give recorded melting point. "COc1ccc(C(=O)Nc2cc(-c3c(-c4cccc(C)c4)nc4ccc(N(C)C)nn34)ccn2)cc1"
Solution: 193 to 194 °C

Exercise: Give recorded melting point. "CCNC(=O)Nc1cc(-c2c(-c3cccc(Cl)c3)nc3cccnn23)ccn1"
Solution: 230 to 231 °C

###

Please go through the items and note down their IC50.
Target Of Assay: active form p38 MAP kinase (Homo sapiens, UniProt Q16539)
Construct: made in house; host or cells: Sf-21 insect cells, baculovirus BAC-HP38 co-infected with BAC-caMKK3
Sequence (Q16539 whole entry): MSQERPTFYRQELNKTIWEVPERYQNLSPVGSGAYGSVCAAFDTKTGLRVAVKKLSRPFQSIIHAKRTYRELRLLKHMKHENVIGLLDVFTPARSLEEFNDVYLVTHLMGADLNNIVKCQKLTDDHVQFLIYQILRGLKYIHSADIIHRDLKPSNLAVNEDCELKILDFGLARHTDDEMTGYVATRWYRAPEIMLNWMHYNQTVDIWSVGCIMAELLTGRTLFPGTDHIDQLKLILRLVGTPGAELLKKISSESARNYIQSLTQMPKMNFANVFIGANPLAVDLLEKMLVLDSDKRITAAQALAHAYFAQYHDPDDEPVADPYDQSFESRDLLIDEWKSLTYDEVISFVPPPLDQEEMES
Test: Measurement of the p38 MAP kinase inhibitory activity (32P uptake into Myelin Basic Protein)
Format: biochemical
Details: 260 ng active form p38 MAP kinase, 1 μg Myelin Basic Protein, 2.5 μM ATP solution, 30° C. for 60 minutes
Report the value in µM with no unit label.

Exercise: Give recorded IC50. "Cc1cc(-c2nc3cccnn3c2-c2ccnc(NC(=O)NCCC#N)c2)ccc1F"
Solution: 0.0049

Exercise: Give recorded IC50. "Cc1cc(-c2nc3cccnn3c2-c2ccnc(NC(=O)C3CC3)c2)ccc1F"
Solution: 0.0087

Exercise: Give recorded IC50. "Cc1cccc(-c2nc3ccc(Cl)nn3c2-c2ccnc(F)c2)c1"
Solution: 0.11

Exercise: Give recorded IC50. "Cc1cccc(-c2nc3ccc(Cl)nn3c2-c2ccnc(NC3CCCCC3)c2)c1"
Solution: 0.19

Exercise: Give recorded IC50. "Cc1cccc(-c2nc3cccnn3c2-c2ccnc(NC(=O)Nc3ccccc3)c2)c1"
Solution: 0.022

Exercise: Give recorded IC50. "Cc1cc(-c2nc3cccnn3c2-c2ccnc(NC(=O)c3ccc4ncsc4c3)c2)ccc1F"
Solution: 0.0039

Exercise: Give recorded IC50. "CCNC(=O)Nc1cc(-c2c(-c3ccc(F)c(C)c3)nc3cccnn23)ccn1"
Solution: 0.0079

Exercise: Give recorded IC50. "Cc1cccc(-c2nc3cccnn3c2-c2ccnc(F)c2)c1"
Solution: 0.16

Exercise: Give recorded IC50. "Cc1cccc(-c2nc3cccnn3c2-c2ccnc(NC(=O)c3ccc(F)cc3)c2)c1"
Solution: 0.014

Exercise: Give recorded IC50. "Cc1cccc(-c2nc3cccnn3c2-c2ccnc(Nc3ccccc3C)c2)c1"
Solution: 0.0026

Exercise: Give recorded IC50. "Cc1cc(-c2nc3cccnn3c2-c2ccnc(NC(=O)NCCO)c2)ccc1F"
Solution: 0.007

Exercise: Give recorded IC50. "CC(=O)Nc1cc(-c2c(-c3cccc(C)c3)nc3ccc(Cl)nn23)ccn1"
Solution: 0.023

Exercise: Give recorded IC50. "Cc1cc(-c2nc3cccnn3c2-c2ccnc(NC(=O)NC(C)C)c2)ccc1F"
Solution: 0.014

Exercise: Give recorded IC50. "Cc1cccc(-c2nc3cccnn3c2-c2ccnc(NCC3CC3)c2)c1"
Solution: 0.0025

Exercise: Give recorded IC50. "Cc1cc(-c2nc3cccnn3c2-c2ccnc(NC(=O)c3ccc4ncccc4c3)c2)ccc1F"
Solution: 0.0034

Exercise: Give recorded IC50. "CSCC(=O)Nc1cc(-c2c(-c3ccc(F)c(C)c3)nc3cccnn23)ccn1"
Solution: 0.0077

Exercise: Give recorded IC50. "Cc1cccc(-c2nc3cccnn3c2-c2ccnc(NC(=O)C3CC3)c2)c1"
Solution: 0.0097

Exercise: Give recorded IC50. "Cc1ccc(C(=O)Nc2cc(-c3c(-c4cccc(C)c4)nc4cccnn34)ccn2)cc1"
Solution: 0.0084

Exercise: Give recorded IC50. "Cc1cccc(-c2nc3ccc(N(C)C)nn3c2-c2ccnc(NC3CCCCC3)c2)c1"
Solution: 0.0087

Exercise: Give recorded IC50. "Cc1cc(-c2nc3cccnn3c2-c2ccnc(NC(=O)c3ccc(F)cc3)c2)ccc1F"
Solution: 0.0081

Exercise: Give recorded IC50. "COc1ccc(C(=O)Nc2cc(-c3c(-c4ccc(F)c(C)c4)nc4cccnn34)ccn2)cc1"
Solution: 0.0012
